Please provide measured λ max for the entries that follow.
ASSAY_EXPLANATION: Absorbance at photostationary state (PSS) under simulated sunlight or 365 nm light
Assay type: physicochemical
Set-up: unit not given here
DETAILS: wavelength of maximum absorbance in the visible range, ring-closed isoform; 2.0×10^−5 M in triglyme
Numbers only.

Batch request: λ max for each of the following compounds.
1. CC(C)(C)c1ccc(-c2cc(C3=C(c4cc(-c5ccc(C(C)(C)C)cc5)sc4-c4cccs4)C(F)(F)C(F)(F)C3(F)F)c(-c3cccs3)s2)cc1
2. FC(F)(F)c1ccc(-c2cc(C3=C(c4cc(-c5ccc(C(F)(F)F)cc5)sc4-c4ccc(C(F)(F)F)cc4)C(F)(F)C(F)(F)C3(F)F)c(-c3ccc(C(F)(F)F)cc3)s2)cc1
3. COc1ccc(-c2cc(C3=C(c4cc(-c5ccc(C#N)cc5)sc4-c4ccc(OC)cc4)C(F)(F)C(F)(F)C3(F)F)c(-c3ccc(C#N)cc3)s2)cc1

1. 625
2. 605
3. 628

----------
Consider the following compounds; for each one, report its Absorbance at PSS, 365 nm.
ASSAY_EXPLANATION: Absorbance at photostationary state (PSS) under simulated sunlight or 365 nm light
Type: physicochemical
DETAILS: 365 nm light source; 2.0×10^−5 M in triglyme
Answers are plain numbers.

sample_smiles=FC(F)(F)c1ccc(-c2cc(C3=C(c4cc(-c5ccc(C(F)(F)F)cc5)sc4-c4ccc(C(F)(F)F)cc4)C(F)(F)C(F)(F)C3(F)F)c(-c3ccc(C(F)(F)F)cc3)s2)cc1 assay_result=0.222
sample_smiles=Cc1cc(-c2sc(-c3sc(C)c(C)c3C)cc2C2=C(c3cc(-c4sc(C)c(C)c4C)sc3-c3cc(C)c(C)s3)C(F)(F)C(F)(F)C2(F)F)sc1C assay_result=0.244

// for each compound below, give its Absorbance at PSS, 365 nm
1. Cc1ccc(-c2cc(C3=C(c4cc(-c5ccc(C)s5)sc4-c4ccc(C)s4)C(F)(F)C(F)(F)C3(F)F)c(-c3ccc(C)s3)s2)s1
2. Cc1ccc(-c2ccc(-c3cc(C4=C(c5cc(-c6ccc(-c7ccc(C)s7)s6)sc5-c5ccc(C)s5)C(F)(F)C(F)(F)C4(F)F)c(-c4ccc(C)s4)s3)s2)s1

1. 0.353
2. 0.468

Bench note: what Absorbance at PSS, 365 nm did `CC(C)(C)COc1ccc(-c2cc(C3=C(c4cc(-c5ccc(OCC(C)(C)C)cc5)sc4-c4ccc(OCC(C)(C)C)cc4)C(F)(F)C(F)(F)C3(F)F)c(-c3ccc(OCC(C)(C)C)cc3)s2)cc1` show?
0.279

----------
Could you please report measured Absorbance at PSS, +UV for the items listed next?
ASSAY_EXPLANATION: Absorbance at photostationary state (PSS) under simulated sunlight or 365 nm light
Format: physicochemical
DETAILS: simulated sunlight with UV blocking film (cutoff 370 nm); 2.0×10^−5 M in triglyme
Procedure: Absorbance at a PSS for selected compounds was measured at 2.0×10^−5 M in triglyme in the absence (full) or presence (+UV) of a UV blocking film with a UV cutoff wavelength of 370 nm (10% transmission at 370 nm), using simulated sunlight (QSUN solar simulator) as a light source, or a 365 nm light source; these PSS are reported in Tables 1.5. […]
Numbers only.

Would you please look over these solved cases?
sample_smiles=FC1(F)C(c2c(-c3ccccc3)sc3ccccc23)=C(c2c(-c3ccccc3)sc3ccccc23)C(F)(F)C1(F)F parameter="Absorbance at PSS, +UV" assay_result=0.006
sample_smiles=CCCCCCCCc1ccc(-c2oc3ccccc3c2C2=C(c3c(-c4ccc(CCCCCCCC)cc4)oc4ccccc34)C(F)(F)C(F)(F)C2(F)F)cc1 parameter="Absorbance at PSS, +UV" assay_result=0.008

Here's the next entry for you.
I am curious: what Absorbance at PSS, +UV value has been reported for `FC1(F)C(c2cc(-c3ccc(/C=C/c4ccccc4)s3)sc2-c2cccs2)=C(c2cc(-c3ccc(/C=C/c4ccccc4)s3)sc2-c2cccs2)C(F)(F)C1(F)F` ?
0.431

----------
ASSAY_EXPLANATION: Absorbance at photostationary state (PSS) under simulated sunlight or 365 nm light
Format: physicochemical
DETAILS: 365 nm light source; 2.0×10^−5 M in triglyme
Bucketed by reported Absorbance at PSS, 365 nm, buckets being 0: < 0.2; 1: ≥ 0.2 and < 0.3; 2: ≥ 0.3

sample_smiles=CC(C)(C)c1ccc(-c2cc(C3=C(c4cc(-c5ccc(C(C)(C)C)cc5)sc4-c4cccs4)C(F)(F)C(F)(F)C3(F)F)c(-c3cccs3)s2)cc1 group_label=1
sample_smiles=COCCOCCOCCOc1ccc(-c2sc(-c3ccc(C(C)(C)C)s3)cc2C2=C(c3cc(-c4ccc(C(C)(C)C)s4)sc3-c3ccc(OCCOCCOCCOC)cc3)C(F)(F)C(F)(F)C2(F)F)cc1 group_label=2

Now look at this one.
Please report the category associated with `CC(C)(C)c1ccc(-c2cc(C3=C(c4cc(-c5ccc(C(C)(C)C)s5)sc4-c4ccc(O)cc4)C(F)(F)C(F)(F)C3(F)F)c(-c3ccc(O)cc3)s2)s1` , nothing else.
1

----------
ASSAY_EXPLANATION: Absorbance at photostationary state (PSS) under simulated sunlight or 365 nm light
Format: physicochemical
DETAILS: simulated sunlight (QSUN solar simulator), no UV blocking film; 2.0×10^−5 M in triglyme
# cutoff 0.2 applies to Absorbance at PSS, full; >= gives rule met, < gives rule not met

sample_smiles=FC1(F)C(c2cc(-c3ccc(/C=C/c4ccccc4)s3)sc2-c2cccs2)=C(c2cc(-c3ccc(/C=C/c4ccccc4)s3)sc2-c2cccs2)C(F)(F)C1(F)F group_label="rule met"
sample_smiles=COc1cccc(-c2cc(C3=C(c4cc(-c5cccc(OC)c5)sc4-c4cccc(OC)c4)C(F)(F)C(F)(F)C3(F)F)c(-c3cccc(OC)c3)s2)c1 group_label="rule not met"
sample_smiles=Cc1csc(-c2cc(C3=C(c4cc(-c5cc(C)cs5)sc4-c4cc(C)cs4)C(F)(F)C(F)(F)C3(F)F)c(-c3cc(C)cs3)s2)c1 group_label="rule met"
sample_smiles=CC(C)(C)c1ccc(-c2cc(C3=C(c4cc(-c5ccc(C(C)(C)C)s5)sc4-c4ccc(OCCCCC(=O)O)cc4)C(F)(F)C(F)(F)C3(F)F)c(-c3ccc(OCCCCC(=O)O)cc3)s2)s1 group_label="rule met"
sample_smiles=COc1cc2oc(-c3ccc(C(C)(C)C)cc3)c(C3=C(c4c(-c5ccc(C(C)(C)C)cc5)oc5cc(OC)c(OC)cc45)C(F)(F)C(F)(F)C3(F)F)c2cc1OC group_label="rule met"

API: above_or_equal(metric=Absorbance at PSS, full, cutoff=0.2) for item `O=C(O)c1ccc(-c2cc(C3=C(c4cc(-c5ccc(C(=O)O)s5)sc4-c4ccc(C(=O)O)s4)C(F)(F)C(F)(F)C3(F)F)c(-c3ccc(C(=O)O)s3)s2)s1`
rule not met

Hi team, for `CCOCCOCCOCCOC(CC)(CC)c1ccc(-c2sc(-c3ccc(C(C)(C)C)s3)cc2C2=C(c3cc(-c4ccc(C(C)(C)C)s4)sc3-c3ccc(C(CC)(CC)OCCOCCOCCOCC)s3)C(F)(F)C(F)(F)C2(F)F)s1` , is the recorded Absorbance at PSS, full at or above 0.2?
rule met

Can `COc1ccc2c(C3=C(c4c(-c5ccc(C)s5)oc5cc(OC)ccc45)C(F)(F)C(F)(F)C3(F)F)c(-c3ccc(C)s3)oc2c1` be said to have Absorbance at PSS, full at or above 0.2?
rule not met

Could you verify whether the entry `CC(C)CCOc1ccc(-c2cc(C3=C(c4cc(-c5ccc(OCCC(C)C)cc5)sc4-c4ccc(OCCC(C)C)cc4)C(F)(F)C(F)(F)C3(F)F)c(-c3ccc(OCCC(C)C)cc3)s2)cc1` shows Absorbance at PSS, full of no less than 0.2?
rule not met

Item `COc1ccc(-c2sc(-c3cc4ccccc4s3)cc2C2=C(c3cc(-c4cc5ccccc5s4)sc3-c3ccc(OC)cc3)C(F)(F)C(F)(F)C2(F)F)cc1` with Absorbance at PSS, full of 0.2 or above?
rule met

Is it the case that `CC(C)(C)c1ccc(-c2sc(-c3ccc(C4(C)OCCO4)cc3)cc2C2=C(c3cc(-c4ccc(C5(C)OCCO5)cc4)sc3-c3ccc(C(C)(C)C)cc3)C(F)(F)C(F)(F)C2(F)F)cc1` has Absorbance at PSS, full reaching or exceeding 0.2?
rule not met

Tell me whether Absorbance at PSS, full is at least 0.2 here: `COc1ccc2c(C3=C(c4c(-c5ccc(OC)c(OC)c5)oc5cc(OC)ccc45)C(F)(F)C(F)(F)C3(F)F)c(-c3ccc(OC)c(OC)c3)oc2c1`
rule not met

Check if Absorbance at PSS, full >= 0.2 (inclusive). Item: `Cc1c(-c2ccccc2)sc(-c2ccccc2)c1C1=C(c2c(-c3ccccc3)sc(-c3ccccc3)c2C)C(F)(F)C(F)(F)C1(F)F`
rule not met
